# System: HMOX1
# assay.name: HMOX1 Protein Assay (immunostaining of HO-1 in NHLF cells, GE InCell 1000)
# Format: cell-based
# run.conditions: Homo sapiens, fold change above DMSO treated cells, 5 μM compound, 16 h
# Method: Cell Culture. Normal Human Fibroblast (NHLF), were obtained from Lonza. Cultures of cells were maintained in Fibroblast Growth Medium (FGM-2) medium supplemented with 2% fetal bovine serum (FBS), Fibroblast Growth Factor (hFGF-B) 0.5 mL, Insulin 0.5 mL, gentamicin/amphotericin-B 0.5 mL at 37° C. in a humidified atmosphere of 5% CO2. […] HMOX1 Protein Assay. […] Plate was washed 5× with 1×PBS and read at Hoechst Ex.360 Em. […] Results analyzed using GE InCell Analyzer software. […]
Hi! Could you tag entries with fold induction at 5 µM below 20 as Yes, and those at or above as No? Much appreciated.

Below are worked cases with known answers.
molecule: CN(CCO)C(=O)CNC(=O)c1ccc2c(c1)nc(Nc1nc3ccc(OC(F)(F)F)cc3s1)n2C
group: No
//
molecule: Cn1c(Nc2nc3ccc(C(F)(F)F)cc3s2)nc2cc(C(=O)O)ccc21
group: No
//
molecule: Cn1c(Nc2nc3ccc(OC(F)(F)F)cc3s2)nc2cc(C(=O)NCC(=O)N3CCCC3)ccc21
group: No
//
molecule: CCS(=O)(=O)CCNC(=O)c1ccc2c(c1)nc(Nc1nc3ccc(OC(F)(F)F)cc3s1)n2C
group: No

In the record for CCNC(=O)c1cc2nc(Nc3nc4ccc(OC(F)(F)F)cc4s3)n(C)c2cc1F , is fold induction at 5 µM less than 20?
No

In the record for COCCn1c(Nc2nc3ccc(Cl)cc3s2)nc2cc(C(=O)NCC(=O)N3CC[C@H](O)C3)ccc21 , is fold induction at 5 µM less than 20?
No

In the record for Cn1c(Nc2nc3ccc(OC(F)(F)F)cc3s2)nc2cc(C(=O)NCc3nccs3)ccc21 , is fold induction at 5 µM less than 20?
Yes

###

# Tested on: HMOX1
# assay.name: HMOX1 Protein Assay (immunostaining of HO-1 in NHLF cells, GE InCell 1000)
# Assay type: cell-based
# run.conditions: Homo sapiens, fold change above DMSO treated cells, 5 μM compound, 16 h
# Experimental: Cell Culture. Normal Human Fibroblast (NHLF), were obtained from Lonza. Cultures of cells were maintained in Fibroblast Growth Medium (FGM-2) medium supplemented with 2% fetal bovine serum (FBS), Fibroblast Growth Factor (hFGF-B) 0.5 mL, Insulin 0.5 mL, gentamicin/amphotericin-B 0.5 mL at 37° C. in a humidified atmosphere of 5% CO2. […] HMOX1 Protein Assay. […] Plate was washed 5× with 1×PBS and read at Hoechst Ex.360 Em. […] Results analyzed using GE InCell Analyzer software. […]
A collection of compounds and their measured fold induction at 5 µM
API note: the answer field is a bare number with no unit suffix.

The cases that follow already have their fold induction at 5 µM on record.
compound: Cn1c(Nc2nc3ccc(S(C)(=O)=O)cc3s2)nc2cc(C(=O)O)ccc21 [Example 119]
observed.property: fold induction at 5 µM
test.result: 22.1
--
compound: Cn1c(Nc2nc3ccc(Cl)cc3s2)nc2cc(C(=O)NCC(=O)N3CCN(S(C)(=O)=O)CC3)ccc21 [Example 429]
observed.property: fold induction at 5 µM
test.result: 21.4
--
compound: Cn1c(Nc2nc3ccc(OC(F)(F)F)cc3s2)nc2cc(C(=O)N[C@@H]3C[C@H](CO)[C@@H](O)[C@H]3O)ccc21 [Example 282]
observed.property: fold induction at 5 µM
test.result: 51.7
--
compound: COCC(C)NC(=O)c1ccc2c(c1)nc(Nc1nc3ccc(OC(F)(F)F)cc3s1)n2C (stereo not drawn) [Example 20]
observed.property: fold induction at 5 µM
test.result: 18.6

// lookup fold induction at 5 µM for Cn1c(Nc2nc3ccc(OC(F)(F)F)cc3s2)nc2cc(C(=O)NC3CCN(CC(C)(C)O)C3)ccc21 (stereo not drawn) [Example 298]
21.1

// lookup fold induction at 5 µM for Cn1c(Nc2nc3ccc(OC(F)(F)F)cc3s2)nc2cc(C(=O)NC[C@@H](O)CO)ccc21 [Example 281]
35.6

// lookup fold induction at 5 µM for Cn1c(Nc2nc3ccc(OC(F)(F)F)cc3s2)nc2cc(C(=O)NCCOCC(N)=O)ccc21 [Example 267]
58.8

// lookup fold induction at 5 µM for Cn1c(Nc2nc3ccc(OC(F)(F)F)cc3s2)nc2cc(C(=O)NCC(=O)N3CCC(CO)CC3)ccc21 [Example 441]
73.6

// lookup fold induction at 5 µM for CN1CC[C@@H](NC(=O)c2ccc3c(c2)nc(Nc2nc4ccc(Cl)cc4s2)n3C)C1 [Example 316]
18.1

Data origin: patent US8759535B2
